B1: TMEM40 (parent)
chain: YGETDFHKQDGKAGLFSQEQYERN

# Variants of: B1
# Assay info: protein stability index of a GFP-peptide fusion (GPS, HEK-293T) (PSI 1-6); higher = more stable;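 also: lentivirally expressed fusions sorted by FACS into six bins by GFP to DsRed ratio, PSI derived from sequencing read proportions per bin multiplied by bin number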
# Condition parameters: c terminus: a fixed tail appended
Threshold check on protein stability index: at or above 4 gives Met, strictly below gives Not met.

Some solved entries appear below for comparison.
Q18W    Not met
G14C    Met
E19I    Not met

Can Y21H be said to have protein stability index at or above 4?
Met

Try D10T next.
Not met

Try G11A next.
Met
